So I've got a bunch of molecules here, and I need their TGI values.
- System: NCI/ADR-RES ovarian
- assay_remarks: NCI tumour cell line growth inhibition, 48 h
Numbers only, in µM.

Example entries and their recorded answers appear below.
// field: TGI; key: N#CCCN1C/C(=C/c2ccc(Cl)cc2)C(=O)/C(=C/c2ccc(Cl)cc2)C1 ; value = 52.2

// field: TGI; key: Cc1cc(N(CCCNc2ccnc3cc(Cl)ccc23)Cc2ccco2)nc(N2CCN(C)CC2)n1 ; value = 18.8

// field: TGI; key: Nc1nc(Nc2ccccc2SSc2ccccc2Nc2nc(N)nc(C(Cl)(Cl)Cl)n2)nc(C(Cl)(Cl)Cl)n1 ; value = 16.6

For each of the molecules below, note its TGI.
1. C#CCNC(=O)[C@H](CC)[C@H]1CC[C@H](C)[C@H]([C@@H](C)[C@H](O)[C@H](C)C(=O)[C@H](CC)C2O[C@]3(C=CC(=O)[C@]4(CC[C@@](C)([C@H]5CC[C@](O)(CC)[C@H](C)O5)O4)O3)[C@H](C)C[C@@H]2C)O1 (some centres not stated)
2. COc1cc(/C=C/C(=O)c2cccc(-n3cc(-c4ccc(Cl)cc4)[nH]c3=O)c2)cc(OC)c1OC

Reply |
[7.72, 7.3]

Attribution: PubChem BioAssay (NCI)
